system: human platelets; test: Suppression of ADP-induced aggregation of human platelets; type: cell-based; settings: human platelet-rich plasma, ADP (3 μM), Born method
observable: pIC50
Answers are plain numbers, as −log10 of the molar value.

# molecule, observable, readout-value
data = [
    ("O=C(O)CSCCCC[C@@H]1[C@@H](C#C[C@@H](O)C2CCCCC2)[C@H](O)C[C@H]1Cl", "pIC50", 8.37),
]

stdin: Recorded pIC50 for CCCCC[C@H](O)/C=C/[C@H]1C(=O)C[C@H](O)[C@@H]1C/C=C\CCCC(=O)O [PGD2, prostaglandin D2, reference compound] , please?
stdout: 7.96
